Attribution: paper PMC11990879

Tested on: C. albicans biofilms cultured on polystyrene
Type: cell-based, Candida albicans
REPORTED CONDITIONS: biofilms cultured on polystyrene, 72 h
Description: Fungal strains were purchased from the Polish Collection of Microorganisms (Polish Academy of Science, Wroclaw, Poland). Four reference strains of Candida (C. albicans ATCC 10231, C. glabrata ATCC 15126, C. lypolytica PCM 2680, and C. tropicalis PCM 2680) were cultured on the Dextrose Sabouraud Agar (DSA, Neogen, Lansing, MI, USA). Before performing the assays, the fungi were cultured in a Sabouraud dextrose broth (DSB, Neogen, Lansing, MI, USA) for 48 h under aerobic conditions at 25 °C. […]
Marks after values point to notes of the source that are not given here. Where a SMILES comes first, the peptide text is derived from it. The star is where a group is joined. Myristoyl = CCCCCCCCCCCCCC(=O)*; Lauroyl = CCCCCCCCCCCC(=O)*; Decanoyl = CCCCCCCCCC(=O)*
METRIC NAME: MBEC 72 h

Hi, could you look up MBEC 72 h for each item in my list?
1. CCCCCCCCCCCCCC(=O)N[C@@H](CCCCN)C(=O)N[C@@H](CCCNC(=N)N)C(=O)N[C@H](C(=O)N[C@H](C(=O)N[C@@H](CCC(N)=O)C(=O)N[C@@H](CCCNC(=N)N)C(=O)N[C@H](C(=O)N[C@@H](CCCCN)C(=O)N[C@@H](CC(=O)O)C(=O)N[C@@H](Cc1ccccc1)C(=O)N[C@@H](CC(C)C)C(=O)N[C@@H](CCCNC(=N)N)C(N)=O)[C@@H](C)CC)C(C)C)[C@@H](C)CC [VII, C14-KR12-NH2] (Myristoyl-KRIVQRIKDFLR-NH2)
2. CCCCCCCCCCCC(=O)N[C@@H](CCCCN)C(=O)N[C@@H](CCCNC(=N)N)C(=O)N[C@H](C(=O)N[C@H](C(=O)N[C@@H](CCC(N)=O)C(=O)N[C@@H](CCCNC(=N)N)C(=O)N[C@H](C(=O)N[C@@H](CCCCN)C(=O)N[C@@H](CC(=O)O)C(=O)N[C@@H](Cc1ccccc1)C(=O)N[C@@H](CC(C)C)C(=O)N[C@@H](CCCNC(=N)N)C(N)=O)[C@@H](C)CC)C(C)C)[C@@H](C)CC [VI, C12-KR12-NH2] (Lauroyl-KRIVQRIKDFLR-NH2)
3. CCCCCCCCCC(=O)N[C@@H](CCCCN)C(=O)N[C@@H](CCCNC(=N)N)C(=O)N[C@H](C(=O)N[C@H](C(=O)N[C@@H](CCC(N)=O)C(=O)N[C@@H](CCCNC(=N)N)C(=O)N[C@H](C(=O)N[C@@H](CCCCN)C(=O)N[C@@H](CC(=O)O)C(=O)N[C@@H](Cc1ccccc1)C(=O)N[C@@H](CC(C)C)C(=O)N[C@@H](CCCNC(=N)N)C(N)=O)[C@@H](C)CC)C(C)C)[C@@H](C)CC [V, C10-KR12-NH2] (Decanoyl-KRIVQRIKDFLR-NH2)

1. 512 mg/L
2. >512 * mg/L
3. >512 * mg/L

====

Give measured MBEC 72 h for each item. Keep answers brief.
System: C. albicans biofilms cultured on polystyrene
Type: cell-based, Candida albicans
REPORTED CONDITIONS: biofilms cultured on polystyrene, 72 h
Marks after values point to notes of the source that are not given here. Where a SMILES comes first, the peptide text is derived from it. The star is where a group is joined. Benzoyl(4-Ph) = O=C(c1ccc(-c2ccccc2)cc1)*; X1 = CCCCCCC(CCCC)C(=O)*

CCCCCCC(CCCC)C(=O)N[C@@H](CCCCN)C(=O)N[C@@H](CCCNC(=N)N)C(=O)N[C@H](C(=O)N[C@H](C(=O)N[C@@H](CCC(N)=O)C(=O)N[C@@H](CCCNC(=N)N)C(=O)N[C@H](C(=O)N[C@@H](CCCCN)C(=O)N[C@@H](CC(=O)O)C(=O)N[C@@H](Cc1ccccc1)C(=O)N[C@@H](CC(C)C)C(=O)N[C@@H](CCCNC(=N)N)C(N)=O)[C@@H](C)CC)C(C)C)[C@@H](C)CC (some centres unmarked) [XIX, 2-Butyloctanoic acid-KR12-NH2] (X1-KRIVQRIKDFLR-NH2) :: >512 * mg/L

Report measured MBEC 72 h on C. albicans biofilms cultured on polystyrene; entry: CC[C@H](C)[C@H](NC(=O)[C@H](CCCNC(=N)N)NC(=O)[C@H](CCC(N)=O)NC(=O)[C@@H](NC(=O)[C@@H](NC(=O)[C@H](CCCNC(=N)N)NC(=O)[C@H](CCCCN)NC(=O)c1ccc(-c2ccccc2)cc1)[C@@H](C)CC)C(C)C)C(=O)N[C@@H](CCCCN)C(=O)N[C@@H](CC(=O)O)C(=O)N[C@@H](Cc1ccccc1)C(=O)N[C@@H](CC(C)C)C(=O)N[C@@H](CCCNC(=N)N)C(N)=O [XXV, 4-Phenylbenzoic acid-KR12-NH2] ({Benzoyl(4-Ph)}-KRIVQRIKDFLR-NH2)
>512 * mg/L
